# Test system: Tetranychus cinnabarinus
# Assay remarks: Insecticidal activity against Tetranychus cinnabarinus (carmine spider mite) assessed as insect mortality at 300 mg/mL
# Format: functional
# Parameters: dose or concentration left out as unconfirmed
Checkbox rule: mortality lower than 90% = 1.0; mortality not lower than 90% = 0.0.

Consider the worked cases shown below.
CCOP(=O)(OCC)SCCCN1C(=O)c2ccccc2C1=O: 0.0
CCOP(=O)(OCC)SCCCSP(=O)(OCC)OCC: 0.0
CCOP(=O)(OCC)SCCCCCCCCCSP(=O)(OCC)OCC: 1.0

With those in mind, consider the next compound.
is_below(mortality, 90%) for CCOP(=O)(OCC)SCCCCCCCCCCSP(=O)(OCC)OCC ?
0.0

src = ChEMBL document CHEMBL3046127
